# tested system: T1, HLA-A*03:01 (human)
# T1 construct: recombinant MHC class I molecule incubated with the synthetic peptide (REVEAL, ProImmune)
# assay notes: REVEAL MHC-peptide binding assay, recombinant HLA
In Vitro Score for assorted binders

Previously resolved entries follow.
IIFWVQRGS (synthetic 9-mer variant; the entry already carries the changes); 4.5 % of positive control peptide
FWVQRGSKK (synthetic 9-mer variant; the entry already carries the changes); 1.9 % of positive control peptide
IIFWVQRGN (synthetic 9-mer variant; the entry already carries the changes); 3.6 % of positive control peptide
IIFWVKRGH (synthetic 9-mer variant; the entry already carries the change); 26.6 % of positive control peptide

Query In Vitro Score for VAFIIFWVA (synthetic 9-mer variant; the entry already carries the change)
0 % of positive control peptide
